# assay_explanation: protein stability index of a GFP-peptide fusion (yeast GPS) (PSI 1-4); higher = more stable; sorted into four equal gates, so the index is relative within each strain
# assay_conditions: ubr1∆

[
  {
    "chain": "LGKKKNVKEEETVAKSK [RPS8A]",
    "protein stability index": 3.25
  },
  {
    "chain": "EVNSLLLQVNKTFCEDP [GRR1]",
    "protein stability index": 3.24
  },
  {
    "chain": "DQVLNLCLTEFENCYLE [FAS1]",
    "protein stability index": 3.25
  },
  {
    "chain": "AFSFGAKSNEDKQDGTA [YJL041W/NSP1]",
    "protein stability index": 3.44
  },
  {
    "chain": "NSMEYTGKITKMFQDIR [CDC53]",
    "protein stability index": 3.28
  },
  {
    "chain": "STKELKFSDIIQGISKM [BRN1]",
    "protein stability index": 3.35
  },
  {
    "chain": "EEKEEENGDEDEDEDED [QCR6]",
    "protein stability index": 3.64
  },
  {
    "chain": "TYNEDIPVEILVRRLSD [PRE9]",
    "protein stability index": 2.85
  },
  {
    "chain": "HNGRDKIQFHIHFADVA [RGR1]",
    "protein stability index": 1.84
  },
  {
    "chain": "SRKAHGLNAKQLYKARM [POP1]",
    "protein stability index": 2.83
  },
  {
    "chain": "LNRFNFQNTNTRSALKL [QCR2]",
    "protein stability index": 2.62
  },
  {
    "chain": "HRIGQKKQVHVYRFVTE [ISW2]",
    "protein stability index": 2.12
  },
  {
    "chain": "LNEKFQELRKKVNPNIM [SMC2]",
    "protein stability index": 2.81
  },
  {
    "chain": "QNPENLLSEKILQYFEK [SIR3]",
    "protein stability index": 3.2
  },
  {
    "chain": "GDNTSDVDMEDRNLTEF [RRI1]",
    "protein stability index": 3.19
  },
  {
    "chain": "GAALKDIEIVRVNKNAP [FAS2]",
    "protein stability index": 3.31
  },
  {
    "chain": "KSTPEGTLWAHVLKTVD [SNU114]",
    "protein stability index": 2.27
  },
  {
    "chain": "TNPKLKSEFDDLSLNIH [YMR129W/POM152]",
    "protein stability index": 3.17
  },
  {
    "chain": "MATPSFGNSSPQLTFTH [YML103C/NUP188]",
    "protein stability index": 2.73
  },
  {
    "chain": "VLTYPEKVTRYNRHKLQ [RPO31]",
    "protein stability index": 1.43
  },
  {
    "chain": "SVKLDLQDDEDHKFPIR [BRN1]",
    "protein stability index": 2.22
  },
  {
    "chain": "LWALLNFLLPDIFGDSE [ISW2]",
    "protein stability index": 2.64
  },
  {
    "chain": "KPTEVNDSENNSSEEDK [ITC1]",
    "protein stability index": 3.3
  },
  {
    "chain": "AVGNLGNAVTVTEDGTV [RPL22A]",
    "protein stability index": 1.99
  },
  {
    "chain": "SLEENAMSTVTLGVVGK [SKI6]",
    "protein stability index": 2.72
  },
  {
    "chain": "TLLWNKNDKLIKIEDFV [SNF5]",
    "protein stability index": 1.83
  },
  {
    "chain": "PAFSFGISNGSESKDSD [YLR335W/NUP2]",
    "protein stability index": 3.08
  },
  {
    "chain": "IEDLRADINSNRLSNPQ [YOR098C/NUP1]",
    "protein stability index": 2.93
  },
  {
    "chain": "WALKSSLNSMTNAKLPN [RGR1]",
    "protein stability index": 2.39
  },
  {
    "chain": "YGESDIHFREHQSELII [YMR129W/POM152]",
    "protein stability index": 2.49
  },
  {
    "chain": "NGTMINEVIDKLKNENT [PCI8]",
    "protein stability index": 3.09
  },
  {
    "chain": "AQFYLGKRIAYVYRASK [RPL33A]",
    "protein stability index": 1.74
  },
  {
    "chain": "ERKQIHEFKLIVGKKIQ [GRR1]",
    "protein stability index": 3.13
  },
  {
    "chain": "VSNPLIQRFFALHYLVP [COB]",
    "protein stability index": 1.2
  },
  {
    "chain": "SKVSIEQRKEAAEFVLA [RPN7]",
    "protein stability index": 2.45
  },
  {
    "chain": "KIWSVKDGSNPRTLIGH [RPN14]",
    "protein stability index": 2.96
  },
  {
    "chain": "PKYIDELKTRDATNTSY [SWP82]",
    "protein stability index": 2.94
  },
  {
    "chain": "RGHRIRREFKQYSLERN [PRP8]",
    "protein stability index": 1.97
  },
  {
    "chain": "HHWLLDKLSGCYAPRPS [RPS4A]",
    "protein stability index": 1.42
  },
  {
    "chain": "NWSKEDLQKLLKGIQEF [SWI3]",
    "protein stability index": 3.33
  },
  {
    "chain": "EVFEFKTFNKIQSQVFE [BRR2]",
    "protein stability index": 3.08
  },
  {
    "chain": "FDALRSLDDNSTSLEKQ [YJL041W/NSP1]",
    "protein stability index": 3.02
  },
  {
    "chain": "MNECIADQDMEDEDMVD [ESC2]",
    "protein stability index": 3.08
  },
  {
    "chain": "QKEQNVNNRDSEKGFSK [YCS4]",
    "protein stability index": 2.97
  },
  {
    "chain": "NEMLLKRVTKVKRLLFT [MTW1]",
    "protein stability index": 1.42
  },
  {
    "chain": "EIEQLDQYIQKQVQISH [YGL172W/NUP49]",
    "protein stability index": 2.87
  },
  {
    "chain": "RIQNRVKLGLNSKMPTR [PRP8]",
    "protein stability index": 2.91
  },
  {
    "chain": "LPKYQTIQYDPPETKLP [SNF5]",
    "protein stability index": 3.01
  },
  {
    "chain": "SEKLITKYFEPTSTENN [ECM29]",
    "protein stability index": 2.97
  },
  {
    "chain": "PRSDAQAIKEASYVNIP [RPS0A]",
    "protein stability index": 2.47
  },
  {
    "chain": "PLLARKQFVVDVLHPNR [RPS24A]",
    "protein stability index": 1.62
  },
  {
    "chain": "KRLNGKRKYLDIPIDEM [SSN2]",
    "protein stability index": 3.14
  },
  {
    "chain": "ARGLTATGKKSRGINKG [RPL15A]",
    "protein stability index": 3.16
  },
  {
    "chain": "LSSAGAKSTVETFISSM [RIP1]",
    "protein stability index": 2.69
  },
  {
    "chain": "IIVPDLIELKSDLLVAP [YML103C/NUP188]",
    "protein stability index": 1.69
  },
  {
    "chain": "LFGMCESLYEPNLEPED [PUP3]",
    "protein stability index": 3.27
  },
  {
    "chain": "IEMKDVSSKPSKPESSV [MED1]",
    "protein stability index": 3.25
  },
  {
    "chain": "SMNVTLGVPRIKEIINA [RPO31]",
    "protein stability index": 2.47
  },
  {
    "chain": "PDGVVVHRDDPALVGKL [SNF6]",
    "protein stability index": 3.33
  },
  {
    "chain": "IMECCQKNDTAAFKDIA [RRP40]",
    "protein stability index": 3.54
  }
]
